Taken from patent US20240174675A1.

experimental details: Pharmacokinetic profiling, plasma and lung levels after intratracheal or inhalation delivery in the mouse
Format: in vivo
condition set: Mouse; Male; CD-1 strain; Intratracheal; 2 mg/kg; 1 mg/ml in PBS; Plasma; read-out: AUC0-24
quantity: AUC(0-t) (µg·h/mL)

[[record]]
molecule = "CCCCCCN(Cc1cn(CCOCCOCCOC(=O)c2nc(C(F)(F)F)n3c2CN(C(=O)C[C@H](N)Cc2cc(F)c(F)cc2F)CC3)nn1)C[C@H](O)[C@@H](O)[C@H](O)[C@H](O)CO [Compound 46]"
quantity = "AUC(0-t)"
units_of_measure = "µg·h/mL"
numeric_result = 0.728


* * *

Catalogue of log10 of IC50 readings, one per entry.
system tested: Human DPP4 (Homo sapiens)
Construct: purchased Sigma-Aldrich MAK088
Sequence (P27487 whole entry): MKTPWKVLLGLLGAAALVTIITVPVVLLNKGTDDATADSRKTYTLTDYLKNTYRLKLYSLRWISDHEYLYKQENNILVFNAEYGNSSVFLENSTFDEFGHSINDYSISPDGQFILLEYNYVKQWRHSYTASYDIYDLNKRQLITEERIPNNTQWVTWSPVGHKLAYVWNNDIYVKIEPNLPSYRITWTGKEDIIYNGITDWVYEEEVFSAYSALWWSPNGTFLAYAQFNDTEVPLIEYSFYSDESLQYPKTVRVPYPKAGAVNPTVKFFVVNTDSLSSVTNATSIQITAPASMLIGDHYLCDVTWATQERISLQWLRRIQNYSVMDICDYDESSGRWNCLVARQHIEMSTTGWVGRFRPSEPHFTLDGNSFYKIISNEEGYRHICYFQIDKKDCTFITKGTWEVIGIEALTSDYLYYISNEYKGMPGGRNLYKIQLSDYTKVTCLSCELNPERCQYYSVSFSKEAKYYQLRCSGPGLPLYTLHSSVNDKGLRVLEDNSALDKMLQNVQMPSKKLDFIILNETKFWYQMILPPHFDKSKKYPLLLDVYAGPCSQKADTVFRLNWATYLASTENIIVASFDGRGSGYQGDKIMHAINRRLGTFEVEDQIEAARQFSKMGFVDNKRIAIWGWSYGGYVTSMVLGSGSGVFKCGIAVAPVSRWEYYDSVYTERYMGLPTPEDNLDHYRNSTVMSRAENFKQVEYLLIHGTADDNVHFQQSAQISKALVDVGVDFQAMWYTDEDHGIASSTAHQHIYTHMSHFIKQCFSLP
experimental details: DPP4 activity assay (DPP4 Activity Assay Kit, fluorescent substrate)
Format: biochemical
condition set: Human DPP4; read-out: DPP4 inhibition IC50 [nM])
quantity: log10 of IC50 (log10 of the value in nM)

[[record]]
molecule = "CC#CCn1c(N2CCC[C@@H](N)C2)nc2c1c(=O)n(Cc1ccc(Cl)cc1Br)c(=O)n2C [Compound 36]"
numeric_result = 1.43

[[record]]
molecule = "N#C[C@@H]1CCCN1C(=O)CN[C@]12CC3CC(C1)C[C@@](OCCO)(C3)C2 (stereo in doubt) [Compound 5]"
numeric_result = 0.36

[[record]]
molecule = "N[C@@H](CC(=O)N1CCn2c(C(F)(F)F)nc(C(=O)OCCCN3CCOCC3)c2C1)Cc1cc(F)c(F)cc1F [Compound 51]"
numeric_result = -0.74

[[record]]
molecule = "CCCCCCCOC(=O)NC12CC3CC(CC(NCC(=O)N4CCC[C@H]4C#N)(C3)C1)C2 [Compound 1]"
numeric_result = 1.49

[[record]]
molecule = "N#C[C@@H]1CCCN1C(=O)CN[C@@]12CC3C[C@@H](C1)C[C@](OCCOCCN(C[C@H](O)[C@@H](O)[C@H](O)[C@H](O)CO)C[C@H](O)[C@@H](O)[C@H](O)[C@H](O)CO)(C3)C2 [Compound 10]"
numeric_result = 1.32


* * *

experimental details: Pharmacokinetic profiling, plasma and lung levels after intratracheal or inhalation delivery in the mouse
Type: in vivo
condition set: inhaled or intranasal; Mouse; Male; CD-1 strain; Inhalation; 10 mg/ml in PBS for 15 mins; Lung
quantity: Cmax (ng/g)

[[record]]
cpd_smiles = "CCCCCCN(Cc1cn(CCOCCOCCOC(=O)c2nc(C(F)(F)F)n3c2CN(C(=O)C[C@H](N)Cc2cc(F)c(F)cc2F)CC3)nn1)C[C@H](O)[C@@H](O)[C@H](O)[C@H](O)CO"
numeric_result = 20900


* * *

experimental details: Pharmacokinetic profiling, plasma and lung levels after intratracheal delivery in the rat
Format: in vivo
condition set: inhaled or intranasal, Male, Sprague Dawley strain, 2 mg/kg, 1 mg/ml in PBS, Plasma, read-out: AUC0-24
quantity: AUC(0-t) (µg·h/mL)

[[record]]
cpd_smiles = "CCCCCCN(Cc1cn(CCOCCOCCOC(=O)c2nc(C(F)(F)F)n3c2CN(C(=O)C[C@H](N)Cc2cc(F)c(F)cc2F)CC3)nn1)C[C@H](O)[C@@H](O)[C@H](O)[C@H](O)CO"
numeric_result = 18

